- Test system: OVCAR-4 ovarian
- Experimental Protocol: NCI-60 one-dose screen, 48 h
- Study Conditions: 10 µM unless noted
Compounds without any hit were thinned out: in the full panel of roughly 83,000, 20% have a hit. Activity calls are given as the source filed them. Rule for the calls: active = growth percent below 10; inactive = the rest.
Select the correct class. Options are 1 = active, -1 = inactive and nothing else.

Completed entries (count: 5):
In [3]: df
Out[3]:
                                   compound        tested_on  group
0  COc1ccc(/C=C(\C#N)n2nnc3cc(F)c(F)cc32)cc1  OVCAR-4 ovarian     -1
1              CN(C)c1ccc(C(=O)OCCCCCCl)cc1  OVCAR-4 ovarian     -1
2                        COc1ccccc1N1CCCCC1  OVCAR-4 ovarian     -1
3                     C/C(=N\O)c1ccc(Cl)cc1  OVCAR-4 ovarian     -1
4  Cn1cc(C(=O)c2nc(-c3c[nH]c4ccccc34)no2)c2cc(F)ccc21  OVCAR-4 ovarian     -1

*Q* So what was the verdict on `COc1ccc2c(c1)c(-c1nc(-c3c[nH]c4ccncc34)cs1)cn2C` in this test?
*A* 1

*Q* Quick one: CCn1cc(C(=O)O)c(=O)c2cc(F)c(N3CCN(CC(=O)Nc4ccc(S(=O)(=O)Nc5nccc(C)n5)cc4)C(C)C3)c(F)c21 (configuration not stated)
*A* -1

*Q* Now the same for `COc1ccc(-c2cc(-c3cc(OC)c(OC)c(OC)c3)c(C#N)c(=O)n2CCCCC(=O)NO)cc1`
*A* -1

*Q* Please do the same for `O=C1/C(=C/c2cccc(F)c2)CN(C(=O)C(Cl)Cl)C/C1=C\c1cccc(F)c1` as well.
*A* 1

*Q* Another compound to check: `Nc1cnc(C(=O)NNc2nc3cc(F)ccc3n3cccc23)cn1`
*A* -1

*Q* Now the same for `Cn1ccnc1C(=O)/C=C/c1ccc(C(=O)Nc2ccc(Cl)cc2)cc1`
*A* -1

*Q* Further, for COc1ccc(C2=Nc3c(N)nc(N)nc3NC(c3cccc(Nc4ccnc5cc(C(F)(F)F)ccc45)c3)C2)cc1 (configuration not stated) ?
*A* -1

*Q* What do we get for `O=C(Nc1ccc(Oc2cccc(F)c2)c(Cl)c1)c1cccnc1` ?
*A* -1
